assay: chemical genetic growth profiling, strain panel (AID 1159580);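 note: tested at 20 µM; growth read once vehicle control cultures reached saturation at 30 °C; 1 = growth at the plate median or of vehicle wells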; settings: S. cerevisiae deletion strains, growth OD, locus YMR205C, strain PFK2 (second series)
In all, about 5,500 compounds went through this assay and about 2,000 (36%) were called active. Another 18% or so got no clear call; they are omitted. Cut-off read from the data, not from the text of the source: active = normalized growth mostly below about 0.91 (no sharp cut-off); inconclusive = no clear call, values can overlap the other calls; inactive = mostly above about 0.92. Some of the results follow.
Classes to choose from: active, inactive

Answered cases to consult:
compound=CC(C)(C)c1ccc(C(=O)Nc2ccc(C(F)(F)F)cc2)s1 category_label=inactive
compound=Cc1onc(-c2c(Cl)cccc2Cl)c1C(=O)NNc1c(Cl)cccc1Cl category_label=inactive
compound=Cc1cccc(NC(=S)NNC(=O)CSCc2cccc3ccccc23)c1 category_label=inactive

Per the records of this test, what outcome belongs to Cc1onc(-c2c(F)cccc2Cl)c1C(=O)ON=C1C2CC3CC(C2)CC1C3 ? inactive

Hi team, can someone confirm the assay call for O=C(Nc1ccc(OC(F)(F)F)cc1)N1CCN(c2nc(-c3ccccc3)ns2)CC1 ? inactive

I'd appreciate the recorded outcome for Cc1c(C(=O)N(Cc2ccccc2)Cc2cccs2)cnn1-c1ccc(Cl)cc1 from this test. inactive

Record request — test call for ClC1=C(C=Nc2ccc(Cl)cc2)CSc2ccc(Cl)cc21 inactive

---

test: chemical genetic growth profiling, strain panel (AID 1159580); conditions: S. cerevisiae deletion strains, growth OD, locus YLR418C, strain cdc73
The whole screen tested about 5,500 compounds, of which about 2,000 (36%) were called active. Inconclusive results (about 18%) are left out. No stated cut-off is given here; in the data, active means normalized growth mostly below about 0.91 (no sharp cut-off); inconclusive means no clear call, values can overlap the other calls; inactive means mostly above about 0.92. The list shows a part of the results.
Valid outcomes are listed here; reply with one: y (active), n (inactive)

Worked examples follow.
compound="O=C1[C@H](CCC(O)c2ccc(F)cc2)[C@@H](c2ccc(O)cc2)N1c1ccc(F)cc1 (stereo not given in full)" category_label=n
compound=COc1c(OC)c2occc2c2oc(=O)ccc12 category_label=y
compound=COC(=O)C[C@H]1C(C)(C)C(=O)[C@@H]2CC3=C(CC[C@]4(C)C3=CC(=O)O[C@H]4c3ccoc3)[C@@]1(C)C2=O category_label=n
compound="CC1(C)OC(=O)C=CC2(C)C1CC(O)C1(C)C2CCC2(C)C(c3ccoc3)OC(=O)C3OC321 (stereo not given)" category_label=n
compound="CC1C[C@H]2CC(=O)[C@H]3CCCN4CCC[C@H]2[C@]34C1 (stereo not given in full)" category_label=n
compound=COc1c2ccoc2c(OC)c2oc(=O)ccc12 category_label=n
compound=CCN(CC)C(=O)c1cccc(C)c1 category_label=n
compound=CC(C)[C@@H]1CC[C@@H](C)C[C@H]1O category_label=n

Please state the recorded outcome for this compound: O=C1NC(=O)C(=O)C(=O)N1 n

Outcome? CC1(C)O[C@@H]2CC3C4CCC5=CC(=O)CCC5(C)C4(F)C(O)CC3(C)[C@]2(C(=O)CCl)O1 (stereo not given in full) n

---

Reported values of normalized growth for individual entries
assay: chemical genetic growth profiling, strain panel (AID 1159580); details: S. cerevisiae deletion strains, growth OD, locus YGR078C, strain PAC10, hits give low values
The campaign covered roughly 5,500 compounds. About 2,000 (36%) were called active. About 18% were inconclusive and are not listed. Some of the results follow.

Record excerpt, results attached:
compound="C#CCCCCCCCCCCCC(O)CC(O)COC(C)=O (centres undefined)" observed_measurement="0.905 (inactive)"
compound=Cc1ccc(Cl)c(Nc2ccccc2C(=O)O)c1Cl observed_measurement="0.926 (inactive)"
compound=Cc1ccc(CC(=O)O)cc1 observed_measurement="0.926 (active)"
compound=Cc1onc(-c2c(Cl)cccc2Cl)c1C(=O)OCC(F)(F)F observed_measurement="0.99 (inactive)"
compound="C=C1C(=O)O[C@@H]2C3O[C@]3(C)CC/C=C(\\C)CC[C@@H]12 (some centres undefined)" observed_measurement="0.695 (active)"

Endpoint output: normalized growth of Cc1ccc(NC(=O)c2c(F)cccc2Cl)c(C(=O)Nc2ccc(F)cc2)c1 . Value? 1.02 (inactive)

Give its normalized growth value. Item: O=C(O)Cc1ccc(O)c(O)c1 1.02 (inactive)

Can you share its normalized growth? I mean this compound: CN1C(C(=O)Nc2ccccn2)=C(O)c2ccccc2S1(=O)=O 0.975 (inactive)

What does the record list as normalized growth for COc1ccc(C(C)=O)cc1CSC(=NS(=O)(=O)c1ccccc1)Nc1cccc(F)c1 ? 1.02 (inactive)

# query: normalized growth of entry CN1c2ccccc2C(=O)NC1c1ccc([N+](=O)[O-])s1 (centres undefined) 1.02 (inactive)

# input compound: C=C1C(C)C2C(Cc3ccccc3)NC(=O)C23OC(=O)/C=C/C(O)CCCC(C)C/C=C/C3C1O (centres undefined) ; wanted: its normalized growth 1.02 (inactive)

I am curious: what normalized growth value has been reported for O=[N+]([O-])c1ccc2c(c1)NC(c1ccc([N+](=O)[O-])s1)O2 (centres undefined) ? 0.0481 (active)

Return reported normalized growth; argument: Cc1c(Cl)cccc1Nc1ccccc1C(=O)O 0.814 (active)

Quick one: normalized growth of CC(=O)OCC(OC(C)=O)C(OC(C)=O)C(OC(C)=O)C(OC(C)=O)C(COC(C)=O)OC(C)=O (centres undefined) ? 1.02 (inactive)

Look at this compound and give its reported normalized growth. COc1cc(-c2coc3cc(OCc4ccccc4)c(OC)c(O)c3c2=O)cc(OCc2ccccc2)c1OC 1 (inactive)

I would be grateful if you could share the reported normalized growth for Cc1cccc(C(=O)O)c1O . 1.01 (inactive)

May I ask what normalized growth has been recorded for CC(C)[C@@H]1CC[C@@H](C)C[C@H]1O ? 0.975 (inactive)

Could you tell me which normalized growth is on file for CC(=O)Oc1c(C)cccc1C(=O)O ? 1 (inactive)

Value lookup for normalized growth; key = CC1OC1P(=O)(O)O (centres undefined) 1.02 (inactive)

Fill in the blank: the reported normalized growth of C=C1C(C)C2C(Cc3ccccc3)NC(=O)C23OC(=O)/C=C/C(=O)CCCC(C)C/C=C/C3C1O (centres undefined) is ____. 0.864 (inactive)

Recorded normalized growth of O=C(Cn1ccnc1[N+](=O)[O-])NCCO , please. 0.995 (inactive)

Find the recorded normalized growth belonging to N#Cc1ncc(C(F)(F)F)cc1Oc1ccc(Cl)cc1 and report it. 0.708 (active)

If you can, please state the reported normalized growth value of CC1(C)C2(Cl)C(Cl)C(Cl)C(Cl)(C(Cl)Cl)C1(Cl)C2Cl (centres undefined) . 0.94 (inactive)

Request the reported normalized growth associated with COc1cc2occ(-c3ccccc3)c(=O)c2c(OC)c1C 0.932 (inactive)

---

assay: chemical genetic growth profiling, strain panel (AID 1159580);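 note: tested at 20 µM; growth read once vehicle control cultures reached saturation at 30 °C; 1 = growth at the plate median or of vehicle wells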; settings: S. cerevisiae deletion strains, growth OD, locus YDL005C, strain med2, hits give low values
Hit rate of the full screen: of about 5,500 compounds, about 2,000 (36%) were called active. Inconclusive results (about 18%) are left out. This is one part of the list.
Friendly reminder: normalized growth below 1 is Criterion met, at or above is Criterion not met.

Would you please look over these solved cases?
compound="CO[C@@]1(NC(=O)CSCC#N)C(=O)N2C(C(=O)O)=C(CSc3nnnn3C)CSC21 (some centres undefined)" category_label="Criterion met"
compound="C#CCCCCCCCCCCCC(=O)CC(O)COC(C)=O (centres undefined)" category_label="Criterion met"

For this compound, is normalized growth lower than 1? CC(C)(C)CC(C)(C)c1ccc(O)c(Cc2ccc(Cl)cc2Cl)c1 Criterion not met

---

assay: chemical genetic growth profiling, strain panel (AID 1159580);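 note: tested at 20 µM; growth read once vehicle control cultures reached saturation at 30 °C; 1 = growth at the plate median or of vehicle wells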; details: S. cerevisiae deletion strains, growth OD, locus YDR334W, strain swr1, hits give low values
The campaign covered roughly 5,500 compounds. About 2,000 (36%) were called active. Roughly 18% stayed inconclusive and do not appear here. The list shows a part of the results.
# normalized growth per record follows

compound="CCCCN1CCCCC1C(=O)Nc1c(C)cccc1C (stereo unspecified)" observed_measurement="0.969 (inactive)"
compound="CC1C[C@H]2CC(=O)[C@H]3CCCN4CCC[C@H]2[C@]34C1 (stereo partly specified)" observed_measurement="1 (inactive)"
compound="COC(=O)[C@@H]1OC(=O)[C@H]2O[C@@]23[C@@]1(C)CCC1[C@@]2(C)CCC(=O)C(C)(C)C2C[C@@H](OC(C)=O)[C@]13C (stereo partly specified)" observed_measurement="0.967 (inactive)"
compound=Cn1c(=O)c2[nH]cnc2n(C)c1=O observed_measurement="1.02 (inactive)"
compound=CCOC(=O)c1ccc(O)cc1 observed_measurement="1.02 (inactive)"

Alright, here's another compound for you.
Fill in the blank: the reported normalized growth of CCOC(=O)Nc1nc2ccccc2[nH]1 is ____. 0.947 (inactive)

---

assay: chemical genetic growth profiling, strain panel (AID 1159580);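 note: tested at 20 µM; growth read once vehicle control cultures reached saturation at 30 °C; 1 = growth at the plate median or of vehicle wells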; details: S. cerevisiae deletion strains, growth OD, locus YCL016C, strain dcc1, hits give low values
Hit rate of the full screen: of about 5,500 compounds, about 2,000 (36%) were called active. Another 18% or so got no clear call; they are omitted. Some of the results follow.
# note: exactly 1 is not below, so it is false (0); use true (1) for normalized growth strictly under it

compound="CCC(C)C(=O)O[C@H]1C[C@H](O)C=C2C=C[C@H](C)[C@H](CC[C@@H](O)C[C@@H](O)CC(=O)O)C21 (stereo partly specified)" category_label="false (0)"
compound=Nc1ccc(N=Nc2ccccc2)c(N)n1 category_label="true (1)"
compound="COC(=O)[C@@H]1OC(=O)[C@H]2O[C@@]23[C@@]1(C)CCC1[C@@]2(C)CCC(=O)C(C)(C)C2C[C@@H](OC(C)=O)[C@]13C (stereo partly specified)" category_label="false (0)"
compound=O=C(O)c1ccccc1-c1c2cc(Br)c(=O)cc-2oc2[c]([Hg])c(O)c(Br)cc12 category_label="false (0)"

Criterion: normalized growth strictly below 1. Is it met by COc1c2ccoc2c(OC)c2oc(=O)ccc12 ? true (1)
